study target: insulin receptor tyrosine kinase (InsRTK) (Rattus norvegicus, UniProt P15127)
Sequence (P15127 764-1383 limits assumed): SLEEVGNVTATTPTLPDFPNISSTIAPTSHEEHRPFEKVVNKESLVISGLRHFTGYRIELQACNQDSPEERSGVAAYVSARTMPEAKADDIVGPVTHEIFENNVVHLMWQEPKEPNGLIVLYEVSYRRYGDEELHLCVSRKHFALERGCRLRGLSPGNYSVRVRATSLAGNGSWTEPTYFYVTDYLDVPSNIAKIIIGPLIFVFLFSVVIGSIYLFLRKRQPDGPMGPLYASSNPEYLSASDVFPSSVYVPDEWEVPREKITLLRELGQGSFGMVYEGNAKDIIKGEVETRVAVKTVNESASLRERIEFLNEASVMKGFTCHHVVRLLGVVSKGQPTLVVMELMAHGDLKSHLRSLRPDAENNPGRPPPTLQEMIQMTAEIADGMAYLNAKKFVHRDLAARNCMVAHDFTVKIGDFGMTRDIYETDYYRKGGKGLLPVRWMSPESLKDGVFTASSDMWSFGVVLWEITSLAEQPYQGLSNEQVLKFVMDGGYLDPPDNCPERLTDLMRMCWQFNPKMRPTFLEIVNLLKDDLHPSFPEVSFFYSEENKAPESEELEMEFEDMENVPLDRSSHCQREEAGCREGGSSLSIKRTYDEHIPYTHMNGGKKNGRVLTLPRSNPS
Sequence (P15127 27-759 partner limits assumed): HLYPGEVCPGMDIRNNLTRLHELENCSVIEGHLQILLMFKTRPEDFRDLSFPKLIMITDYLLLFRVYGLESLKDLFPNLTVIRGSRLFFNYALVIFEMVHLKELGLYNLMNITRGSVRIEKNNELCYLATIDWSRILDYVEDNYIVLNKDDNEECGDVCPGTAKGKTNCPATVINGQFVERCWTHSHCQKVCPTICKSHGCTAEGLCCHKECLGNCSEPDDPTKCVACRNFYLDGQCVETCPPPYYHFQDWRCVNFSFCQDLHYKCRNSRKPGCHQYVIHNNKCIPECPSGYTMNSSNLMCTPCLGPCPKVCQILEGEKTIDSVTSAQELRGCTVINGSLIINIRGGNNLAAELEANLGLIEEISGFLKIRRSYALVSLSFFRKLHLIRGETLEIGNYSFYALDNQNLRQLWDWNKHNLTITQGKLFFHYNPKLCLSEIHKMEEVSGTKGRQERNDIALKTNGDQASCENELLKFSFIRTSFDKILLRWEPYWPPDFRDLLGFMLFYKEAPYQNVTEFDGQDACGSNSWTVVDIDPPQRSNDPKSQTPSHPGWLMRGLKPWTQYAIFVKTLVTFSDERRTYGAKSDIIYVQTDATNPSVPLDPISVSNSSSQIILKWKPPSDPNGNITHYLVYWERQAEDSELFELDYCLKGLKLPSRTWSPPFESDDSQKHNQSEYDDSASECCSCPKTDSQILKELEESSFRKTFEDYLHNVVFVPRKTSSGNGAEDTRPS
assay explanation: PolyGlu4 Tyr phosphorylation by partially purified (wheat-germ-agglutinin purified) rat liver insulin receptor, cell-free
Format: biochemical
Parameters: wheat-germ-agglutinin purified rat liver insulin receptor; from tissue; host or cells: rat liver (wheat-germ-agglutinin purified)
pIC50: −log10 of the molar value.

>  <molecule>
O=C(N[C@@H](Cc1c(Sc2ccc([N+](=O)[O-])cc2[N+](=O)[O-])[nH]c2ccccc12)C(=O)NCCS(=O)(=O)O)OCc1ccccc1

>  <study target>
insulin receptor tyrosine kinase (InsRTK) (Rattus norvegicus, UniProt P15127)

>  <comparative sign>
=

>  <pIC50>
3.89

$$$$
>  <molecule>
N[C@@H](Cc1c[nH]c2ccccc12)C(=O)O [L-tryptophan, reference compound]

>  <study target>
insulin receptor tyrosine kinase (InsRTK) (Rattus norvegicus, UniProt P15127)

>  <comparative sign>
<

>  <pIC50>
1.52

$$$$
